Target: T1, p5 peptide of EGFL7 (human)
T1 construct: also called Peptide P5
T1 peptide: RACSTYRTIYRTA
Assay: SPR (Biacore), IgG over immobilized P5 peptide at 37 C;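 further: IgG variants injected at 0.5–1000 nM (2-fold series), 3 min association and 3.5 min dissociation, reference flow cell subtracted, kinetics fitted with a 1:1 Langmuir model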
I'd be grateful if you could share measured koff for these entries.
Field format: number, assumed s⁻¹, no unit text.

Req: Form field: reported koff of 18F7.v4 IgG (antibody, name in Kabat numbering, V domains shown, IgG; Kabat numbering; also called 18F7-KV) VH: EVQLVESGGGLVQPGGSLRLSCAASGYTFIDYYMNWVRQAPGKGLEWVGDINLDNGGTHYNQKFKGRFTISRDKSKNTVYLQMNSLRAEDTAVYYCAREGVYHDYDDYAMDYWGQGTLVTVSS VL: DIQMTQSPSSLSASVGDRVTITCRTSQSLVHINGITYLHWYQQKPGKAPKLLIYRVSNRFSGVPSRFSGSGSGTDFTLTISSLQPEDFATYYCSQSTHVPLTFGQGTKVEIKR
Resp: 0.00132

Req: Form field: reported koff of 18F7.v7 IgG (antibody, V domains shown, IgG; Kabat numbering) VH: EVQLVESGGGLVQPGGSLRLSCAASGYTFIDYYMNWVRQAPGKGLEWVGDINLDNGGTHYNQKFKGRFTISRDKSKNTAYLQMNSLRAEDTAVYYCAREGVYHDYDDYAMDYWGQGTLVTVSS VL: DIQMTQSPSSLSASVGDRVTITCRTSQSLVHINGITYLHWYQQKPGKAPKLLIYRVSNRFSGVPSRFSGSGSGTDFTLTISSLQPEDFATYYCAQSTHVPLTFGQGTKVEIK
Resp: 0.000718

Req: Form field: reported koff of 18F7.v10 IgG (antibody, V domains shown, IgG; Kabat numbering) VH: EVQLVESGGGLVQPGGSLRLSCAASGYTFIDYYMNWVRQAPGKGLEWVGDINLDNGGTHYNQKFKGRFTISRDKSKNTAYLQMNSLRAEDTAVYYCAREGVYHPYDDYAMDYWGQGTLVTVSS VL: DIQMTQSPSSLSASVGDRVTITCRTSQSLVHINGITYLHWYQQKPGKAPKLLIYRVSNRFSGVPSRFSGSGSGTDFTLTISSLQPEDFATYYCSQSTHVPLTFGQGTKVEIK
Resp: 0.000811
